These measurements were taken from patent US7335632B2.

Tested on: Aβ production
Method description: Cellular Aβ IC50 determination (Aβ40 sandwich ELISA)
Type: cell-based
Condition details: Cricetulus griseus, Chinese hamster ovary cells over-expressing human APP695 with London and Swedish mutations, 24 h
Protocol: The potency of compounds against memapsin 2 activity was determined in a cellular assay of Aβ production. […] Chinese hamster ovary cells that over-express human APP695 with the London and Swedish mutations were seeded in multi-well plates at 10% confluency. Compounds were dissolved in DMSO to concentrations near 1 mM, and diluted into culture media to a final concentration near 4 μM (final 0.4% DMSO). Compounds were diluted serially and applied to cells in multi-well plates 48 h after seeding. […]
Measured IC50, listed per entry.

Examples with answers:
{"Compound": "CCC(C)SC[C@H](NC(=O)OCc1nc(C)cs1)C(=O)N[C@H](CC(C)C)[C@@H](O)C[C@@H](C)C(=O)N[C@@H](C(=O)NCC(C)C)C(C)C (stereo partly drawn)", "Endpoint result": "< 6 µM"}
{"Compound": "Cc1nc(COC(=O)N[C@@H](CS(C)(=O)=O)C(=O)N[C@H](CC(C)C)[C@@H](O)C[C@@H](C)C(=O)N[C@@H](C(=O)NCC(C)C)C(C)C)c(C)o1", "Endpoint result": "< 6 µM"}
{"Compound": "Cc1csc(CC(C)C(=O)N[C@@H](CS(C)(=O)=O)C(=O)N[C@H](CC(C)C)[C@@H](O)C[C@@H](C)C(=O)N[C@@H](C(=O)NCC(C)C)C(C)C)n1 (stereo partly drawn)", "Endpoint result": "> 100 µM"}
{"Compound": "Cc1csc(COC(=O)N[C@@H](CS(=O)(=O)CC(C)C)C(=O)N[C@H](CC(C)C)[C@@H](O)C[C@@H](C)C(=O)N[C@@H](C(=O)NCC(C)C)C(C)C)n1", "Endpoint result": "> 100 µM"}
{"Compound": "CC[C@@H](Cc1nc(C)cs1)C(=O)N[C@@H](CS(C)(=O)=O)C(=O)N[C@H](CC(C)C)[C@@H](O)C[C@@H](C)C(=O)N[C@@H](C(=O)NCC(C)C)C(C)C", "Endpoint result": "< 6 µM"}

The record that follows has no IC50 shown yet.
Quick one: IC50 for `CCc1nc(COC(=O)N[C@@H](CS(C)(=O)=O)C(=O)N[C@H](CC(C)C)[C@@H](O)C[C@@H](C)C(=O)N[C@@H](C(=O)NCC(C)C)C(C)C)c(C)s1` ?
> 100 µM

###

Test system: Cathepsin D (Homo sapiens)
Sequence (P07339 65-412, species assumed): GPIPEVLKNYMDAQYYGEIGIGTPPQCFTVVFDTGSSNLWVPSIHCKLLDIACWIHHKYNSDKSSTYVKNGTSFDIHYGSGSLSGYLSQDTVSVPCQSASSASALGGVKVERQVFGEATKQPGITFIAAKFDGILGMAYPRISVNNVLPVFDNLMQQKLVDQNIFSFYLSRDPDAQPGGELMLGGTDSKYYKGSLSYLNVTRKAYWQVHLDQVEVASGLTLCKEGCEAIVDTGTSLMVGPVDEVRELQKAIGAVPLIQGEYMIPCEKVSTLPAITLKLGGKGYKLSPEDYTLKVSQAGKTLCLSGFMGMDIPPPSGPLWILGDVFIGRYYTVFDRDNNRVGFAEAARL
Method description: Inhibition of cathepsin D activity (substrate peptide […], MALDI-TOF)
Type: biochemical
Condition details: pH 4.1, 37 degrees C., substrate NH3-[…]-CO2, MALDI-TOF; read-out: Cath D Ki
Experimental endpoint: Ki

Examples with answers:
{"Structure notation": "CSC[C@H](NC(=O)OCc1nccn1C)C(=O)N[C@@H](CC(C)C)[C@@H](O)C[C@@H](C)C(=O)N[C@@H](C(=O)NCC(C)C)C(C)C", "Experimental endpoint": "Ki", "Endpoint result": "100 to 1000 nM"}
{"Structure notation": "CSC[C@H](NC(=O)CCc1nc(C)cs1)C(=O)N[C@H](CC(C)C)[C@@H](O)C[C@@H](C)C(=O)N[C@@H](C(=O)NCC(C)C)C(C)C", "Experimental endpoint": "Ki", "Endpoint result": "< 100 nM"}
{"Structure notation": "CSC[C@H](NC(=O)[C@@H](C)Cc1nc(C)cs1)C(=O)N[C@H](CC(C)C)[C@@H](O)C[C@@H](C)C(=O)N[C@@H](C(=O)NCC(C)C)C(C)C", "Experimental endpoint": "Ki", "Endpoint result": "< 100 nM"}

The record that follows has no Ki shown yet.
// fetch Cathepsin D (Homo sapiens) Ki for `Cc1csc(COC(=O)N[C@@H](CS(C)(=O)=O)C(=O)N[C@H](CC(C)C)[C@@H](O)C[C@@H](C)C(=O)N[C@@H](C(=O)NCC(C)C)c2ccccc2)n1`
100 to 1000 nM
